Target: DNA dC->dU-editing enzyme APOBEC-3G (Homo sapiens)
Assay: APOBEC3G DNA deaminase inhibitors, primary screen, biochemical, fluorescence, single-stranded DNA substrate, uHTS (AID 493012);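 also: plate controls were DMSO wells with A3G for no effect and wells lacking A3G enzyme for full effect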
Settings: recombinant A3G, ssDNA deamination FAM/TAMRA fluorescence; at 20 µM
The campaign covered roughly 330,000 compounds. About 930 (0.28%) were called active.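 The calls were made as follows: active = inhibition of at least 40% at 20 µM, with no more than 30% in the related APOBEC3A deaminase screen; inactive = the rest.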 The sample as a whole holds a higher share of actives than the screen did.
Response enum: Yes = active, No = inactive

Q: // return assay outcome for "CCc1ccc2nc3sc(C(=O)Nc4nnc(CC)s4)c(N)c3cc2c1"
Ans: No

Q: What call does the record list for CC1CCc2sc3nc(N4CCN(CCO)CC4)n4ncnc4c3c2C1 (stereo not drawn) ?
Ans: No

Continuing:
Q: Write down the call the test reported for this compound. Item: "CCCn1c(NC(=O)C23CC4CC(CC(O)(C4)C2)C3)nc2ccccc21"
Ans: No

Q: What did the test return for "Cc1ccc(S(=O)(=O)N(C)CC(=O)NCCc2c[nH]c3ccccc23)cc1" ?
Ans: Yes

Q: What did the test return for "CCOc1cc(C(=S)N2CCOCC2)ccc1O" ?
Ans: Yes

Q: Name the outcome recorded for "CC(C)(C)c1nnc(NC(=O)C2c3ccccc3Oc3ccccc32)s1" in the assay.
Ans: Yes

Q: Answer briefly: the call reported for "O=S(=O)(N/N=C\c1cccn1-c1ccccc1)c1ccc2ccccc2c1" in this assay.
Ans: No

Q: Per the records of this test, what outcome belongs to "CCN(CC)C(=O)CSC(Nc1cccc(F)c1)=C(C#N)C#N" ?
Ans: No

Q: Hi team, can someone confirm the assay call for "S=c1[nH]ccn1-c1ccc(Cl)cc1" ?
Ans: Yes

Q: Assay outcome for "Cn1c(N)cc(-c2ccc(F)cc2)c(C#N)c1=O" : what was it?
Ans: No

Q: Which outcome did this test record for the compound "Cc1nc2scc(-c3cccs3)c2c(=O)n1N" ?
Ans: Yes

Q: Hi, sorry to bother you, what did the test record for "N=c1c2c3c(sc2ncn1CCCN1CCOCC1)CCCCC3" ?
Ans: No

Q: Recorded test outcome, item CCC(C)NC(=O)C1c2ccccc2Oc2ccccc21 (stereo not drawn)
Ans: No

Q: Per the records of this test, what outcome belongs to "CCOc1ccc(-c2cn(S(=O)(=O)c3cccc4nsnc34)nc2N)cc1" ?
Ans: No

Q: Assay result, entry "CCCNC(=S)N1CCC(NC(=O)C23CC4CC(CC(C4)C2)C3)CC1" — outcome?
Ans: No

Q: For "O=C(CSc1nc2[nH]ncc2c(=O)[nH]1)Nc1ccc(F)cc1" , which call appears in the assay record?
Ans: No

Q: What call does the record list for COc1cc(C2/C(=C(\O)c3ccc4c(c3)CC(C)O4)C(=O)C(=O)N2Cc2ccco2)ccc1O (stereo not drawn) ?
Ans: No

Q: What classification did "O=C(Nc1ccncc1)Nc1ccc(F)cc1" end up with in this test?
Ans: No

Q: Fill in: this test's call for COC(=O)c1sccc1NC(=O)CC1C(=O)NCCN1C(=O)Nc1ccc(F)cc1F (stereo not drawn) is ___
Ans: No

Q: What was the test verdict on "CCC(C)(C)NC(=O)c1cc([N+](=O)[O-])ccc1N1CCCCC1" ?
Ans: No

Q: Assay result, entry "COc1cccc(NC(=O)CN(C)C(=O)CSCc2nc3scc(-c4cccs4)c3c(=O)[nH]2)c1" — outcome?
Ans: No

Q: # outcome recorded in this test, key = "CC(=O)Nc1ccc(S(=O)(=O)Nc2ccc(N3CCCCC3)cc2)cc1"
Ans: No

###

Target: DNA dC->dU-editing enzyme APOBEC-3G (Homo sapiens) (UniProt Q9HC16)
Sequence (Q9HC16 whole entry, looked up): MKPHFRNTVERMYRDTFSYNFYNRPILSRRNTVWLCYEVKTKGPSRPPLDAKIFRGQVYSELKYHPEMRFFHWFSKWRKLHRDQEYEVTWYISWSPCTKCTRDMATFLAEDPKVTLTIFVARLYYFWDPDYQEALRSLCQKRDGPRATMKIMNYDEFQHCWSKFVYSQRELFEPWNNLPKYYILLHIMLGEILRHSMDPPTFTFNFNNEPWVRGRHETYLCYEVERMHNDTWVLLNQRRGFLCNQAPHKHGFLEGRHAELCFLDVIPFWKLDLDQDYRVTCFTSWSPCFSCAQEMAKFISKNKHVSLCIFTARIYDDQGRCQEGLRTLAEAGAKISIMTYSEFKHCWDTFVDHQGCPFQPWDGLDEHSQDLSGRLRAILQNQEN
Assay: APOBEC3G DNA deaminase inhibitors, primary screen, biochemical, fluorescence, single-stranded DNA substrate, uHTS (AID 493012);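 also: plate controls were DMSO wells with A3G for no effect and wells lacking A3G enzyme for full effect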
Settings: recombinant A3G, ssDNA deamination FAM/TAMRA fluorescence; at 20 µM
Among all 330,000 compounds or so, about 930 (0.28%) were called active.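 Rule for the calls: active = inhibition of at least 40% at 20 µM, with no more than 30% in the related APOBEC3A deaminase screen; inactive = the rest.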 The list comes from a sample in which actives are over-represented; it also holds close analogues and randomly drawn compounds.
The reply should be one of these categories: 1 (yes) = active, 0 (no) = inactive

Q: I would be grateful if you could indicate the recorded call for CCCCCC(O)c1cccc(OCc2ccc3ccccc3n2)c1 (stereo unspecified) .
Ans: 0 (no)

Q: Called result for Cc1[nH]c2ccccc2c1C(=O)CN1CC(C)CC(C)C1 (stereo unspecified)
Ans: 0 (no)

Q: Each compound tested received a call. Report the one for Cc1ccc([N+](=O)[O-])c(OCCCNCC(C)O)c1 (stereo unspecified) .
Ans: 0 (no)

Q: GET /call?item= "CN(C)c1nc(NN)nc(Nc2ccc(F)cc2)n1" returns the recorded outcome of this test.
Ans: 0 (no)

Q: Please indicate how the test categorized "Cc1cc(C)n(C(=O)c2ccc(C)c(S(=O)(=O)N3CCOCC3)c2)n1" .
Ans: 0 (no)

Further cases:
Q: Identify the outcome logged in this assay for the compound shown: "CN(c1ccccc1)S(=O)(=O)c1ccc(Cl)c(C(=O)NCCc2c[nH]c3ccccc23)c1"
Ans: 0 (no)

Q: Just curious, what result did CSCCC(NS(=O)(=O)c1ccc(C)cc1)C(=O)NCCc1c[nH]c2ccccc12 (stereo unspecified) get here?
Ans: 0 (no)

Q: Lab log entry: "S=c1[nH]cc(-c2ccc(Cl)cc2)n1-c1ccccc1" — outcome as called in the assay?
Ans: 0 (no)

Q: For "CNC(=O)c1sc(Nc2ccc(OCc3ccccc3)cc2)nc1C" , which call appears in the assay record?
Ans: 0 (no)

Q: Recorded call for "O=c1[nH]c2ccccc2n2c(-c3ccccc3)nnc12" ?
Ans: 1 (yes)

Q: How did this test come out for "Cc1cc(C)c2c(-c3ccc(F)cc3)c(C#N)c(=O)n(C)c2n1" ?
Ans: 1 (yes)

Q: Fill in: this test's call for "C/C(=C(\C#N)C(=O)NCCCN1CCOCC1)N(C)C" is ___
Ans: 0 (no)

Q: Which outcome did this test record for the compound O=C(COC(=O)c1ncc(Cl)c(Cl)c1Cl)NC1CCS(=O)(=O)C1 (stereo unspecified) ?
Ans: 0 (no)

Q: Which outcome was assigned to CCOC(=O)C(C)Sc1nnc(CSc2nc3nc(C)cc(C)n3n2)o1 (stereo unspecified) in this test?
Ans: 0 (no)

Q: // outcome(item) with item = CC(C)(C)n1nnnc1C(c1ccc2ncccc2c1)N1CCSCC1 (stereo unspecified)
Ans: 0 (no)

Q: What did the test return for "Cc1ccnc(-n2sc3ccccc3c2=O)n1" ?
Ans: 1 (yes)
